The measured values listed here are drawn from BindingDB's records for doi:10.1016/j.bmcl.2006.01.017.

// Ki lookup, one value per entry
Sequence of the target: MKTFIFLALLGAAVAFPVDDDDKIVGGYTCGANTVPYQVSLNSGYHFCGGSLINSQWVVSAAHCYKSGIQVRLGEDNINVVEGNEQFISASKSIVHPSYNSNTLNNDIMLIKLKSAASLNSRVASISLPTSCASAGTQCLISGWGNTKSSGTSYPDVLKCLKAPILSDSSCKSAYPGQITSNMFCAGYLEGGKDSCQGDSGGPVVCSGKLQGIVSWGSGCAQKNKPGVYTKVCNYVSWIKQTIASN

Nc1ccc2[nH]c(-c3cc(CC(=O)O)cc(-c4cccc([N+](=O)[O-])c4)c3O)nc2n1 : > 150 µM

Suppose we examine the compound "O=C(O)Cc1cc(-c2cccc([N+](=O)[O-])c2)c(O)c(-c2nc3ccccc3[nH]2)c1" ; what Ki value has been reported?
> 150 µM
